Field: GFP response vs DMSO. Provide a value for each of the molecules that follow.
Experiment: hit retest on RPL19A-GFP reporter strain – cell-based, S. cerevisiae, flow cytometry, cherry picks, mother/daughter gates, confirmation (AID 2270)
Settings: 3 h, at 10 µM, stronger effect = lower value, 100 = same GFP as DMSO wells
The source made the active and inactive calls.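 The calls were made as follows: active = GFP response below 50% of the DMSO control; inconclusive = fewer than 70 events counted for a yeast strain; inactive = the rest.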

Problem: Fill in GFP response vs DMSO for record `O=C(/C=C/c1ccccc1)c1ccccc1`
Result: 98% (inactive)

Problem: Fill in GFP response vs DMSO for record `C[C@]12CCC(=O)C=C1[C@H](O)C[C@@H]1[C@@H]2[C@@H](O)C[C@@]2(C)[C@H]1CC[C@]2(O)C(=O)CO`
Result: 99.1% (inactive)

Problem: Fill in GFP response vs DMSO for record c1ccc2c(c1)CCOC2CNCCCN1CCCCC1 (stereo not given)
Result: 101% (inactive)

Problem: Fill in GFP response vs DMSO for record `CC(=O)[C@H]1CC[C@H]2[C@@H]3CCC4=CC(=O)CC[C@]4(C)[C@H]3CC[C@]12C`
Result: 99.9% (inactive)

Problem: Fill in GFP response vs DMSO for record `c1cnc2c(c1)ccc1cccnc12`
Result: 101% (inactive)

----------
Test: TOR pathway RTG branch CIT2 reporter changes – S. cerevisiae, GFP fusion, multiplex flow cytometry, primary screen (AID 1870);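 also: barcoded CIT2-GFP strain pooled with four other GFP strains with rapamycin as positive control; median GFP fluorescence per well over plate mean of DMSO wells so 100% = DMSO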
Conditions: S. cerevisiae CIT2-GFP expression, 3 h, at 10 µM, stronger effect = higher value
Calls of active or inactive are those of the source.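 How the source made its calls: active means percent response above a set limit, the screen-wide mean plus 3 SD (cut at about 130% in these data); inactive means the rest.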
endpoint.name: percent response of DMSO control

Problem: Fill in percent response of DMSO control for record `O=C(O)CCCNc1ccc(S(=O)(=O)Nc2ccccc2C(=O)O)cc1C(=O)O`
Result: 116% (inactive)

Problem: Fill in percent response of DMSO control for record `CCCCN1C[C@H](O)[C@@H](O)[C@H](O)[C@H]1CO`
Result: 95.7% (inactive)

Problem: Fill in percent response of DMSO control for record COC(=O)c1ccc(NC(=O)C23CCC(C)(C(=O)O2)C3(C)C)cc1 (stereo unspecified)
Result: 102% (inactive)

Problem: Fill in percent response of DMSO control for record `COc1ccc(S(=O)(=O)NCc2ccco2)c2ccccc12`
Result: 88.2% (inactive)

Problem: Fill in percent response of DMSO control for record `CCOc1ccc(C(=O)C(C)=O)c(OCC)c1`
Result: 104% (inactive)

Problem: Fill in percent response of DMSO control for record `COc1ccc(-n2cc(CNCc3cccnc3)c(-c3cccc(F)c3)n2)cc1`
Result: 115% (inactive)

Problem: Fill in percent response of DMSO control for record COc1ccc(C2CC(c3c(O)cc(C)oc3=O)=NCCS2)c(OC)c1 (stereo unspecified)
Result: 111% (inactive)

Problem: Fill in percent response of DMSO control for record `CCOc1ncnc2c1[nH]c1ccccc12`
Result: 104% (inactive)

Problem: Fill in percent response of DMSO control for record `CCOc1ccc2[nH]c3c(=O)n(CCc4ccc(OC)cc4)cnc3c2c1`
Result: 90.1% (inactive)

Problem: Fill in percent response of DMSO control for record `COc1ccc(OC)c(S(=O)(=O)N2CCCc3ccccc32)c1`
Result: 91.3% (inactive)

Problem: Fill in percent response of DMSO control for record `CC1(C)O[C@@H]2C[C@H]3[C@@H]4C[C@H](F)C5=CC(=O)C=C[C@]5(C)[C@@]4(F)[C@@H](O)C[C@]3(C)[C@]2(C(=O)CO)O1`
Result: 105% (inactive)

Problem: Fill in percent response of DMSO control for record O=C(NC(Nc1ccccn1)C(Cl)(Cl)Cl)c1ccccc1 (stereo unspecified)
Result: 103% (inactive)

Problem: Fill in percent response of DMSO control for record `O=C(O)/C=C/c1cnc[nH]1`
Result: 106% (inactive)

Problem: Fill in percent response of DMSO control for record `O=C1c2ccccc2C(=O)N1/N=C/c1ccc(Oc2ccc([N+](=O)[O-])cn2)cc1`
Result: 115% (inactive)

Problem: Fill in percent response of DMSO control for record CC(C)OC(=O)C1C2C=CC3(CN(CC4CCCO4)C(=O)C13)O2 (stereo unspecified)
Result: 98.6% (inactive)

Problem: Fill in percent response of DMSO control for record Cc1ccc(S(=O)(=O)NC(C(=O)Oc2ccc3c(C(F)(F)F)cc(=O)oc3c2)c2ccccc2)cc1 (stereo unspecified)
Result: 100% (inactive)

Problem: Fill in percent response of DMSO control for record `COc1ccc(CCNc2ncnc3c2[nH]c2cc(OC)c(OC)cc23)cc1OC`
Result: 111% (inactive)

Problem: Fill in percent response of DMSO control for record `CC(C)Oc1ccc2c(=O)c(-c3ccccc3)coc2c1`
Result: 106% (inactive)

Problem: Fill in percent response of DMSO control for record `COc1ccc2nc(C)cc(Nc3ccccc3O)c2c1`
Result: 90.1% (inactive)

Problem: Fill in percent response of DMSO control for record `CC1(C)CC(=O)c2c(nc3ccccc3c2N)C1`
Result: 111% (inactive)

Problem: Fill in percent response of DMSO control for record `COc1cc2nc(-c3ccccc3)nc(N3CCCC3)c2cc1OC`
Result: 107% (inactive)

Problem: Fill in percent response of DMSO control for record `CC(C)c1cc(=O)oc2c3c4c(cc12)CCCN4CCC3`
Result: 99.6% (inactive)

Problem: Fill in percent response of DMSO control for record Cc1cc(-c2nn(-c3ccccc3F)cc2CN2CCCC(O)C2)c(C)s1 (stereo unspecified)
Result: 97.7% (inactive)

Problem: Fill in percent response of DMSO control for record CC(NCCc1ccc(O)cc1)C(O)c1ccc(O)cc1 (stereo unspecified)
Result: 91.3% (inactive)

Problem: Fill in percent response of DMSO control for record Cc1ccc2c(c1)C(O)(C1COC(C)(C)CC1=O)C(=O)N2C (stereo unspecified)
Result: 104% (inactive)

Problem: Fill in percent response of DMSO control for record CCOC(=O)C1C(=O)OC2(CCOC(C)(C)C2)C1C(=O)OCC (stereo unspecified)
Result: 102% (inactive)

----------
Molecular target: Guanine nucleotide-binding protein G(o) subunit alpha (Homo sapiens) + Regulator of G-protein signaling 19 (Homo sapiens) (UniProt P09471+P49795)
Sequence (P09471 whole entry, looked up): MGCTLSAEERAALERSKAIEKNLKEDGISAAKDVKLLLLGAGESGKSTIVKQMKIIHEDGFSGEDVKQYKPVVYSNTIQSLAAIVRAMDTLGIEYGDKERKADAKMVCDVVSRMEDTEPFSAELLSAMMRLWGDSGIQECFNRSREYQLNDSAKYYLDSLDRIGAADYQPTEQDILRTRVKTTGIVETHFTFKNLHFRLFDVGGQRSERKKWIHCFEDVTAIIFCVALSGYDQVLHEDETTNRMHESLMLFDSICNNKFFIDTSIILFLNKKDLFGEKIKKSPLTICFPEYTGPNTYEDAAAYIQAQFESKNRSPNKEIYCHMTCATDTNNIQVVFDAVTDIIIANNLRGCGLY
Sequence (P49795 whole entry, looked up): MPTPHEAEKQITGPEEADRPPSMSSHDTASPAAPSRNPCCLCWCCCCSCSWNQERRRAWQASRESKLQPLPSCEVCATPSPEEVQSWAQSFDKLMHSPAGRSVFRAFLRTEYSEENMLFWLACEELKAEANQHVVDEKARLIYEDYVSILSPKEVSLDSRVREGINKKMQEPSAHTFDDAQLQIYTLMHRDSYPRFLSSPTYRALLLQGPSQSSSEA
Test: RGS19 interaction with Gαo, hit retest – biochemical, single point, multiplexed bead flow cytometry, confirmation (AID 1841);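 also: 100% = no compound control and 0% = blank background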
Conditions: bead-based flow cytometry RGS19-Galphao binding; at 10 µM; actives lie on both sides
The other results are listed elsewhere or left out. Calls of active or inactive are those of the source. Cut-off read from the data, not from the text of the source: active = response below about 50% or above about 160%; inactive = in between.
Respond using exactly one of the listed classes: t (active), f (inactive)

Problem: I would be grateful if you could indicate the recorded call for `CCn1c(CSCc2c(Cl)cccc2Cl)n[nH]c1=S` .
Result: f

Problem: I would be grateful if you could indicate the recorded call for `O=C(Nc1ccccc1)c1cc2ccccc2[nH]1` .
Result: f

Problem: I would be grateful if you could indicate the recorded call for `Cc1ncoc1C(=O)NCCC(c1ccccc1)c1ccccc1` .
Result: f

Problem: I would be grateful if you could indicate the recorded call for `Cc1cc(C)cc(N(CC(=O)Nc2c(C)n(C)n(-c3ccccc3)c2=O)S(C)(=O)=O)c1` .
Result: f

Problem: I would be grateful if you could indicate the recorded call for `CCOC(=O)c1oc2c(CN3CCN(C)CC3)c(O)ccc2c(=O)c1-c1ccc(Br)cc1` .
Result: f

Problem: I would be grateful if you could indicate the recorded call for Cc1cc(C)n(CC(O)CN(c2ccccc2)S(=O)(=O)c2ccc3ccccc3c2)n1 (centres undefined) .
Result: f

Problem: I would be grateful if you could indicate the recorded call for `COc1ccc(-n2c(SCC(=O)OC(C)C)nnc2-c2ccccn2)cc1` .
Result: f

Problem: I would be grateful if you could indicate the recorded call for Cc1ccc(N2C(=O)C3C(c4ccccc4)(C2=O)C3(c2ccccc2)c2ccccc2)cc1 (centres undefined) .
Result: f

Problem: I would be grateful if you could indicate the recorded call for Cc1cc(C)nc(/N=C2\NC(=O)CC(C(=O)O)N2c2ccc(Cl)cc2Cl)n1 (centres undefined) .
Result: f

Problem: I would be grateful if you could indicate the recorded call for `COc1ccc(CCNC(=O)c2cc3sccc3n2C)cc1OC` .
Result: f

Problem: I would be grateful if you could indicate the recorded call for COc1cc(C2/C(=C(\O)c3ccc4c(c3)CC(C)O4)C(=O)C(=O)N2Cc2ccco2)ccc1O (centres undefined) .
Result: f

Problem: I would be grateful if you could indicate the recorded call for `CN(C)CCNC(=O)/C(=C/c1cccc([N+](=O)[O-])c1)NC(=O)c1ccccc1` .
Result: f

Problem: I would be grateful if you could indicate the recorded call for `CCCOc1ccc(Cc2c(Cl)nc(SC)nc2NC)cc1` .
Result: f

Problem: I would be grateful if you could indicate the recorded call for `O=C(CSc1ccc2nnc(-c3ccccc3)n2n1)N1CCCc2ccccc21` .
Result: f

Problem: I would be grateful if you could indicate the recorded call for `CCOC(=O)CSc1nc2c(c(=O)n(Cc3ccccc3Cl)c(=O)n2C)n1C` .
Result: f

Problem: I would be grateful if you could indicate the recorded call for `CCOC(=O)CCP(=O)(O)C(O)(c1ccccc1)c1ccccc1` .
Result: f

Problem: I would be grateful if you could indicate the recorded call for `NC(=O)CSc1c[nH]c2ccccc12` .
Result: f

Problem: I would be grateful if you could indicate the recorded call for `Oc1ccc(-c2onc3ccc(Cl)cc23)cc1` .
Result: f

Problem: I would be grateful if you could indicate the recorded call for `Cc1ccc(C)c(OCC(=O)N2CCN(C(=O)c3ccco3)CC2)c1` .
Result: f

Problem: I would be grateful if you could indicate the recorded call for CCCC1C(c2ccccc2)C(C#N)(C#N)C2(C#N)CC1(N)NC2=O (centres undefined) .
Result: f

Problem: I would be grateful if you could indicate the recorded call for `N#Cc1nc(COc2ccc(-c3ccccc3)cc2)oc1NCc1cccnc1` .
Result: t

Problem: I would be grateful if you could indicate the recorded call for `C=CCn1c(=NC(=O)c2cccs2)sc2cc(NC(C)=O)ccc21` .
Result: f

Problem: I would be grateful if you could indicate the recorded call for `Oc1ccc(N=Nc2nccs2)c(O)c1` .
Result: f

Problem: I would be grateful if you could indicate the recorded call for `COc1ccc(C(=O)COC(=O)c2ccc3ccccc3n2)cc1` .
Result: f

Problem: I would be grateful if you could indicate the recorded call for `Cc1ccccc1NC(=S)N(CCCN1CCOCC1)Cc1cccs1` .
Result: f

Problem: I would be grateful if you could indicate the recorded call for O=C(OCC1O[C@@H](OC(=O)c2cc(O)c(O)c(O)c2)[C@@H](OC(=O)c2cc(O)c(O)c(O)c2)[C@@H](OC(=O)c2cc(O)c(O)c(O)c2)[C@@H]1OC(=O)c1cc(O)c(O)c(O)c1)c1cc(O)c(O)c(O)c1 (some centres undefined) .
Result: t

Problem: I would be grateful if you could indicate the recorded call for `CC(C)Cc1nc(Nc2ccc(S(=O)(=O)N3CCCC3)cc2)c2nnn(Cc3ccccc3)c2n1` .
Result: f

Problem: I would be grateful if you could indicate the recorded call for `O=c1[nH]c2ccccc2s1` .
Result: f

Problem: I would be grateful if you could indicate the recorded call for `COCCNC(=S)N/N=C/c1c(C)[nH]c2ccccc12` .
Result: t

Hey, just so you know, these numbers are from PubChem BioAssay.
